Target: CyclinE1/CDK2 (Homo sapiens, UniProt P24864)
Construct: purchased Eurofins, discovery 14-475
Experiment: Fluorescence Polarization (FP) competitive binding assay, Cyclin E1/Cdk2;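 further: readings taken after two-hour equilibration at room temperature in HEPES buffer with NaCl, DTT, NP-40 and BSA, IC50 fitted from eight-concentration serial dilution series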
Conditions: 10 nM Cyclin E1/Cdk2, 2 nM FAM probe; average of 2-3 independent experiments; read-out: Cyclin E FP IC50
*1 amine or outer side, *2 acyl side, *3 side chain or, on linkers, in order; H or OH if unused. Where a SMILES comes first, the peptide text is derived from it. Bridges are numbered along the chain shown (N, C = ends). [ ]: non-standard residue; d: D form. The star is where a group is joined. X138 = CN([C@@H](Cc1cc(Cl)ccc1-c1ccc(S(=O)(=O)N2CCCC2)cc1)C(=O)[*:2])[*:1]; NMehhhLys(Me) = CN([C@@H](CCCCCCCN(C)[*:3])C(=O)[*:2])[*:1]; cBuCO(3,3-F2-1-CF3) = O=C(C1(C(F)(F)F)CC(F)(F)C1)*; Pro(trans-4-F) = O=C(O)[C@@H]1C[C@@H](F)CN1; Gly(cPr) = N[C@H](C(=O)O)C1CC1

COMPOUND: CC(C)C[C@@H]1NC(=O)[C@@H](N(C)C(=O)[C@@H](NC(=O)[C@@H]2C[C@@H](F)CN2C(=O)C2(C(F)(F)F)CC(F)(F)C2)C2CC2)CC=CCCCCN(C)C(=O)[C@H](Cc2cc(Cl)ccc2Cl)N(C)C1=O
IC50: 340 nM

COMPOUND: CC(C)C[C@@H]1NC(=O)[C@@H](N(C)C(=O)[C@@H](NC(=O)[C@@H]2C[C@@H](F)CN2C(=O)C2(C(F)(F)F)CC(F)(F)C2)C2CC2)CCCCCCCN(C)C(=O)[C@H](Cc2cc(Cl)ccc2-c2ccc(S(=O)(=O)N3CCCC3)cc2)N(C)C1=O [Example 266] ({cBuCO(3,3-F2-1-CF3)}-[Pro(trans-4-F)][Gly(cPr)][NMehhhLys(Me)]L[X138]; lactam 3-C)
IC50: 2220 nM
